experimental.system: MDM2 (Homo sapiens, UniProt Q00987)
Sequence (Q00987 whole entry): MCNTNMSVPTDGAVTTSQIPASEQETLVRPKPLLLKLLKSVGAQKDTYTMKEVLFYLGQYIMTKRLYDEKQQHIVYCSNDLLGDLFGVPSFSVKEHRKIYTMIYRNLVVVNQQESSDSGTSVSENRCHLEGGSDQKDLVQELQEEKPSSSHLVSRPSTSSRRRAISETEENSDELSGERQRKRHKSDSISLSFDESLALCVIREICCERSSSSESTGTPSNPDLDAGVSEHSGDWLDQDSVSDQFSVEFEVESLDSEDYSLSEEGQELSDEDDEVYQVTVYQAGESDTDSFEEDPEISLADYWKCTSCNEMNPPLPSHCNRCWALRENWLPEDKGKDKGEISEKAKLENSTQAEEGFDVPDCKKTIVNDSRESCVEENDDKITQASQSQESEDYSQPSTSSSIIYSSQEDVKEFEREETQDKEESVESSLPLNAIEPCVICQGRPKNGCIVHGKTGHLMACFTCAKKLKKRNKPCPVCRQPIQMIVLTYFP
assay: MDM2 binding screen: displacement of fluorescent p53 peptide probe FP53 (fluorescence polarization)
condition.parameters: Acid 91; replicate; crude macrocycle reactions
Method: We screened Library 2 in 384-microwell plates by dispensing the target protein MDM2 and reporter peptide into the wells containing the macrocycle reactions. The products were screened for displacement of a p53-based fluorescent peptide from human MDM2. […] For each macrocycle, the MDM2 binding was measured once. One fluorescence anisotropy reading was taken with a Tecan Infinite F200 Pro fluorescence plate reader (excitation at 485 nm, emission at 535 nm) at 25 °C. […]
Numbered stars: 1 amine (or outer) side, 2 acyl side, 3 side chain; on linkers, the order of the positions; unused ones are H or OH. Bridge positions count the residues as written; N and C are the ends. Square brackets hold non-standard residues; d marks the D form. Peptide text beside a SMILES is read from it. * marks the point of attachment. Cysteamide = C(CS[*:3])N[*:1]; X1 = O=C(/C=C/c1ccccc1)*; Dap = NC[C@H](N)C(=O)O; Mpa = O=C(O)CCS
readout.kind: fraction fluorescent probe displaced, Replicate
Give bare numbers.

# per-item lookup of fraction fluorescent probe displaced, Replicate; items listed below
1. O=C(/C=C/c1ccccc1)NC[C@@H]1NC(=O)[C@H](Cc2ccccc2)NC(=O)CCNC(=O)CCSSCCNC1=O
2. O=C1CCSSCCNC(=O)C2(CCN(C(=O)/C=C/c3ccccc3)CC2)NC(=O)[C@H](Cc2c[nH]c3ccccc23)NC(=O)c2cccc(c2)CN1
3. O=C1CCSSCCNC(=O)C2CCCN2C(=O)C2CN(C(=O)C=Cc3ccccc3)CCN2C(=O)C(Cc2c[nH]c3ccccc23)N1 (mixture of isomers)
4. O=C1CCSSCCNC(=O)C2(CCN(C(=O)/C=C/c3ccccc3)CC2)NC(=O)c2cccc(c2)CNC(=O)[C@H](Cc2ccccc2)N1
5. O=C(/C=C/c1ccccc1)NC[C@@H]1NC(=O)CCSSCCNC(=O)[C@H](Cc2c[nH]c3ccccc23)NC(=O)[C@@H]2CCCN2C1=O [X D3 B1 W Acid 91] ([Mpa][Dap](X1)PW-Cysteamide; disulfide 1-C)

Response:
[-0.11, 0.17, 0.0168, -0.00827, 0.04]

----------
Would you mind telling me the reported Ki of each entry?
experimental.system: thrombin (Homo sapiens)
Construct: consists of two polypeptide chains of 36 (light chain) and 259 amino acid
assay: Determination of Kis of purified thrombin inhibitors (IC50, Cheng-Prusoff)
Assay type: biochemical
condition.parameters: thrombin; replicate 3; Cheng-Prusoff; read-out: Ki (nM) Replicate 3
Field: value (include unit after the number)

These recorded examples may help you get a feel for the data.
CC(C)[C@@H]1NC(=O)CCSSCCNC(=O)[C@H](CNC(=O)c2ccc(Cl)s2)NC(=O)c2cccc(c2)CNC1=O	119 nM
O=C1CCSSCCNC(=O)C(CNC(=O)c2ccc(Cl)s2)NC(=O)c2cccc(c2)CNC(=O)C(Cc2ccccc2)N1 (stereo not drawn)	149 nM

Below: the item to evaluate.
Query: Param item = "CC(C)[C@H]1NC(=O)CCSSCCNC(=O)[C@H](CNC(=O)c2ccc(Cl)s2)NC(=O)c2cccc(c2)CNC1=O" ; retrieve measured Ki.
Response: 45 nM

----------
experimental.system: MDM2 (Homo sapiens, UniProt Q00987)
assay: MDM2 binding screen of Libraries 3 and 4: displacement of fluorescent probe F-M8 at 750 nM macrocycle
condition.parameters: Panel b, Library 3: 63 scaffolds combinatorially acylated with 15 carboxylic acids at 30 picomole scale; displacement of fluorescent peptide probe; macrocycle 750 nM
Bucketed by reported fraction of fluorescent probe displaced, buckets being range A = under -0.005, range B = from -0.005 up to 0.008, range C = 0.008 and over

O=C(/C=C/c1ccc(OCc2ccccc2)cc1)NCCN1CC(=O)N[C@@H](Cc2ccc3ccccc3c2)C(=O)NCCSSCCC(=O)NCC2(CC2)C1=O	range C
O=C1CN(CCNC(=O)c2cccc(Oc3ccccc3)c2)C(=O)[C@@H]2CN(CCO2)C(=O)CCSSCCNC(=O)[C@H](Cc2cccc3ccccc23)N1	range A
O=C(/C=C/c1ccc(Cl)cc1)NC[C@@H]1NC(=O)C2(CC2)CNC(=O)CCSSCCNC(=O)[C@H](Cc2c[nH]c3cc(Cl)ccc23)NC1=O	range B
O=C(CCS(=O)(=O)c1ccccc1)NC[C@@H]1NC(=O)C2(CC2)CNC(=O)CCSSCCNC(=O)[C@H](Cc2c[nH]c3ccccc23)NC1=O	range A
O=C1CCSSCCNC(=O)C(Cc2cccc3ccccc23)NC(=O)CN(CCNC(=O)C2COc3ccccc3O2)C(=O)C2(CC2)CN1 (mixture of isomers)	range A

Query: Bin this entry: "O=C1CCSSCCNC(=O)[C@H](Cc2ccc3ccccc3c2)NC(=O)[C@H](CNC(=O)c2ccc3ccccc3c2)NC(=O)C2(CC2)CN1"
Response: range C

Query: Try this molecule too: "O=C(/C=C/c1ccc2ccccc2c1)NCCN1CC(=O)N[C@H](Cc2c[nH]c3ccccc23)C(=O)NCCSSCCC(=O)N2CCC[C@@H](C2)C1=O"
Response: range C

Query: Try this molecule too: "O=C(/C=C/c1ccc(OCc2ccccc2)cc1)NC[C@@H]1NC(=O)C2(CC2)CNC(=O)CCSSCCNC(=O)[C@H](Cc2cccc3ccccc23)NC1=O"
Response: range B

Query: Try this molecule too: "O=C(NC[C@@H]1NC(=O)[C@H]2CCCN(C2)C(=O)CCSSCCNC(=O)[C@@H](Cc2c[nH]c3ccccc23)NC1=O)c1ccc(Cl)cc1"
Response: range A

Query: Try this molecule too: "CN1C(=O)CN(CCNC(=O)CCS(=O)(=O)c2ccccc2)C(=O)[C@H]2CCCN(C2)C(=O)CCSSCCNC(=O)[C@@H]1Cc1c[nH]c2ccccc12"
Response: range A

----------
Would you mind telling me the reported IC50 of each entry?
experimental.system: thrombin (Homo sapiens, UniProt P00734)
Construct: consists of two polypeptide chains of 36 (light chain) and 259 amino acid
assay: Determination of Kis of purified thrombin inhibitors (IC50, Cheng-Prusoff)
Assay type: biochemical
condition.parameters: thrombin; replicate 2; read-out: IC50 (nM) Replicate 2
Method: Purified thrombin inhibitors (10 mM in DMSO) were diluted to 80 μM in 125 μL of Tris buffer (100 mM Tris-Cl, 150 mM NaCl, 10 mM MgCl2, 1 mM CaCl2) containing 0.1% w/v BSA, 0.01% v/v Triton-X100 and 0.2% DMSO. […] The thrombin activity was measured in 96-well plates (Greiner, 655101) and the residual activity calculated as described above in the assay used to measure activities of HPLC-separated fractions of screening hits. […]
Answers are plain numbers, in nM.

These recorded examples may help you get a feel for the data.
O=C1CCSSCCNC(=O)C(CNC(=O)c2ccc(Cl)s2)NC(=O)c2cccc(c2)CNC(=O)C(Cc2ccccc2)N1 (stereo not shown)	179
CC(C)C1NC(=O)CCSCSCCNC(=O)C(CNC(=O)c2ccc(Cl)s2)NC(=O)c2cccc(c2)CNC1=O (stereo not shown)	106
CC(C)[C@H]1NC(=O)CCSSCCNC(=O)[C@H](CNC(=O)c2ccc(Cl)s2)NC(=O)c2cccc(c2)CNC1=O	56

Query: Param item = "CC(C)[C@@H]1NC(=O)CCSSCCNC(=O)[C@H](CNC(=O)c2ccc(Cl)s2)NC(=O)c2cccc(c2)CNC1=O" ; retrieve measured IC50.
Response: 160

----------
experimental.system: MDM2 (Homo sapiens, UniProt Q00987)
assay: MDM2 binding screen: displacement of fluorescent p53 peptide probe FP53 (fluorescence polarization)
condition.parameters: Acid 25; initial screen; crude macrocycle reactions
Numbered stars: 1 amine (or outer) side, 2 acyl side, 3 side chain; on linkers, the order of the positions; unused ones are H or OH. Bridge positions count the residues as written; N and C are the ends. Square brackets hold non-standard residues; d marks the D form. Peptide text beside a SMILES is read from it. * marks the point of attachment. ξ: configuration not given here. ξPro(4ξ-NHCOC6H4-4-Cl) = O=C(NC1CNC(C(=O)O)C1)c1ccc(Cl)cc1; Benzoyl(4-Cl) = O=C(c1ccc(Cl)cc1)*; Cysteamide = C(CS[*:3])N[*:1]; Dap = NC[C@H](N)C(=O)O; Mpa = O=C(O)CCS
Would you mind telling me the reported fraction fluorescent probe displaced, Screen of each entry?
One number for each entry.

O=C1CCSSCCNC(=O)[C@H](CNC(=O)c2ccc(Cl)cc2)NC(=O)[C@H]2CCCN(C2)C(=O)[C@H](Cc2c[nH]c3ccccc23)N1 [X W B4 D3 Acid 25]	0.25
O=C1NCCSSCCC(=O)N2CCCC(C2)C(=O)N2CCN(C(=O)c3ccc(Cl)cc3)CC2C(=O)NC1Cc1c[nH]c2ccccc12 (stereo not drawn) [X B4 D7 W Acid 25]	0.32
O=C1CCSSCCNC(=O)c2cccc(c2)CNC(=O)C(CNC(=O)c2ccc(Cl)cc2)NC(=O)C(Cc2c[nH]c3ccccc23)N1 (stereo not drawn) [X W D3 B5 Acid 25]	0.12
O=C1CCNC(=O)C2CN(C(=O)c3ccc(Cl)cc3)CCN2C(=O)C(Cc2ccccc2)NC(=O)CCSSCCN1 (stereo not drawn) [X F D7 B2 Acid 25]	-0.07
O=C(NC1CC2C(=O)N3CCCC3C(=O)NC(Cc3ccccc3)C(=O)NCCSSCCC(=O)N2C1)c1ccc(Cl)cc1 (stereo not drawn) [X D5 B1 F Acid 25] ([Mpa][ξPro(4ξ-NHCOC6H4-4-Cl)]PF-Cysteamide; disulfide 1-C; configuration not given here)	-0.07
O=C1CCSSCCNC(=O)C2CCCN(C2)C(=O)C2(CCN(C(=O)c3ccc(Cl)cc3)CC2)NC(=O)C(Cc2c[nH]c3ccccc23)N1 (stereo not drawn) [X W D6 B4 Acid 25]	0.28

# per-item lookup of fraction fluorescent probe displaced, Screen; items listed below
1. O=C(NC[C@@H]1NC(=O)[C@H](Cc2c[nH]c3ccccc23)NC(=O)[C@@H]2CCCN2C(=O)CCSSCCNC1=O)c1ccc(Cl)cc1 [X B1 W D3 Acid 25] ([Mpa]PW[Dap](Benzoyl(4-Cl))-Cysteamide; disulfide 1-C)
2. O=C1CCSSCCNC(=O)[C@H](CNC(=O)c2ccc(Cl)cc2)NC(=O)c2cccc(c2)CNC(=O)[C@H](Cc2c[nH]c3ccccc23)N1 [X W B5 D3 Acid 25]
3. O=C1CCSSCCNC(=O)C2CCCN(C2)C(=O)C2CC(NC(=O)c3ccc(Cl)cc3)CN2C(=O)C(Cc2c[nH]c3ccccc23)N1 (stereo not drawn) [X W D5 B4 Acid 25]
4. O=C(N[C@H]1C[C@H]2C(=O)NCc3cccc(c3)C(=O)N[C@@H](Cc3ccccc3)C(=O)NCCSSCCC(=O)N2C1)c1ccc(Cl)cc1 [X D5 B5 F Acid 25]

Response:
1: 0.25; 2: 0.41; 3: 0.22; 4: -0.00813

# per-item lookup of fraction fluorescent probe displaced, Screen; items listed below
1. O=C1CCSSCCNC(=O)C2CCCN(C2)C(=O)C2CN(C(=O)c3ccc(Cl)cc3)CCN2C(=O)C(Cc2c[nH]c3ccccc23)N1 (stereo not drawn) [X W D7 B4 Acid 25]
2. O=C1CCSSCCNC(=O)c2cccc(c2)CNC(=O)C2CN(C(=O)c3ccc(Cl)cc3)CCN2C(=O)[C@H](Cc2c[nH]c3ccccc23)N1 (stereo partly drawn) [X W D7 B5 Acid 25]
3. O=C1CCSSCCNC(=O)c2cccc(c2)CNC(=O)C2CN(C(=O)c3ccc(Cl)cc3)CCN2C(=O)C(Cc2ccccc2)N1 (mixture of isomers) [X F D7 B5 Acid 25]
4. O=C1NCCSSCCC(=O)N2CCN(C(=O)c3ccc(Cl)cc3)CC2C(=O)NC(Cc2c[nH]c3ccccc23)C(=O)NCc2cccc1c2 (mixture of isomers) [X D7 W B5 Acid 25]
5. O=C1CCSSCCNC(=O)[C@H](Cc2ccccc2)NC(=O)C2(CCN(C(=O)c3ccc(Cl)cc3)CC2)NC(=O)c2cccc(c2)CN1 [X B5 D6 F Acid 25]

Response:
1. 0.15
2. 0.12
3. 0.09
4. 0.61
5. 0.0462
